test: activity coefficient (dimensionless); of the first substance listed, at infinite dilution; xn = mol fraction of the nth substance listed; settings: 323.15 K; Liquid; Chromatography; x1 = 0
Give activity coefficient for every item shown.
Write no unit; give the number alone.

Exam item: Give its activity coefficient value. Item: CC(C)CO [2-methyl-1-propanol] + CCCCCCCCn1cc[n+](COCCC)c1C.O=S(=O)([N-]S(=O)(=O)C(F)(F)F)C(F)(F)F
Marked response: 1.21

Exam item: Follow-up entry: CCCCCCCC [octane] + CCCOC[n+]1ccn(C)c1.N#C[N-]C#N
Marked response: 155

Exam item: Follow-up entry: CCCO [propan-1-ol] + CCCOC[n+]1ccn(C)c1.O=S(=O)([N-]S(=O)(=O)C(F)(F)F)C(F)(F)F
Marked response: 1.86

Exam item: Follow-up entry: Cc1ccccc1 [toluene] + CCCOC[n+]1ccn(C)c1.N#C[N-]C#N
Marked response: 3.6

Exam item: Follow-up entry: C#CCCCC [1-hexyne] + CCCOC[n+]1ccn(C)c1.F[B-](F)(F)F
Marked response: 10.3

Exam item: Follow-up entry: CCCO [propan-1-ol] + CCCOC[n+]1ccn(Cc2ccccc2)c1.N#C[N-]C#N
Marked response: 0.84

Exam item: Follow-up entry: CCC(C)=O [butanone] + Cn1cc[n+](COCCCOC[n+]2ccn(C)c2)c1.O=S(=O)([N-]S(=O)(=O)C(F)(F)F)C(F)(F)F.O=S(=O)([N-]S(=O)(=O)C(F)(F)F)C(F)(F)F
Marked response: 0.36

Exam item: Follow-up entry: CCCCCCCCCCC [undecane] + Cn1cc[n+](COCCCOC[n+]2ccn(C)c2)c1.N#C[N-]C#N.N#C[N-]C#N
Marked response: 938

Exam item: Follow-up entry: c1ccccc1 [benzene] + CCCCCCCCn1cc[n+](COCCC)c1C.N#C[N-]C#N
Marked response: 1.39

Exam item: Follow-up entry: CCCCCCCC [octane] + CCCCCCCCn1cc[n+](COCCCOC[n+]2ccn(CCCCCCCC)c2C)c1C.N#C[N-]C#N.N#C[N-]C#N
Marked response: 12.1

Exam item: Follow-up entry: C[N+](=O)[O-] [nitromethane] + CN(C)c1cc[n+](COCCCOC[n+]2ccc(N(C)C)cc2)cc1.O=S(=O)([N-]S(=O)(=O)C(F)(F)F)C(F)(F)F.O=S(=O)([N-]S(=O)(=O)C(F)(F)F)C(F)(F)F
Marked response: 0.39

Exam item: Follow-up entry: C#CCCCCC [1-heptyne] + CCCOC[n+]1ccn(C)c1.N#C[N-]C#N
Marked response: 10.9

Exam item: Follow-up entry: CCCCCCCCCCC [undecane] + Cn1cc[n+](COCCCOC[n+]2ccn(C)c2)c1.O=S(=O)([N-]S(=O)(=O)C(F)(F)F)C(F)(F)F.O=S(=O)([N-]S(=O)(=O)C(F)(F)F)C(F)(F)F
Marked response: 193

Exam item: Follow-up entry: ClCCl [dichloromethane] + CCCOC[n+]1ccc(N(C)C)cc1.O=S(=O)([N-]S(=O)(=O)C(F)(F)F)C(F)(F)F
Marked response: 0.57
